Hey, just so you know, these numbers are from ChEMBL document CHEMBL3880422.

Target: Caspase-8 (Homo sapiens) (UniProt Q14790)
Sequence (Q14790 217-374 limits assumed): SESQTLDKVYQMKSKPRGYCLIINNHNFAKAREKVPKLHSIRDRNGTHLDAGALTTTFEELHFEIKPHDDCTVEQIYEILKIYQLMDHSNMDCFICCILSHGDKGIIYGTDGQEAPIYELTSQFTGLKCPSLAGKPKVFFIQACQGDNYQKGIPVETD
Sequence (Q14790 385-479 limits assumed): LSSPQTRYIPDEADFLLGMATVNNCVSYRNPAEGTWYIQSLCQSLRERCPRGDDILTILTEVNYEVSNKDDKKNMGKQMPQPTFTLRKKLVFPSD
Experiment: Inhibition of recombinant MCH5 (unknown origin) assessed as ratio of irreversible rate constant K3 to dissociation constant of the reversible binding step Ki pre-incubated for 60 mins with Acetyl-Tyr-Val-Ala-Asp-amino-4-methylcoumarin substrate followed by enzyme addition by fluorescence based assay
# reported Ratio; entries follow

Query :: I'm curious: which Ratio was measured for `C[C@H](NC(=O)C(=O)Nc1ccccc1Cl)C(=O)N[C@@H](CC(=O)O)C(=O)COC(=O)c1c(Cl)cccc1Cl` tested on Caspase-8 (Homo sapiens) (UniProt Q14790)?
Result :: 396000 to 1.63e+06 M⁻¹ s⁻¹

Query :: Now try `C[C@H](NC(=O)C(=O)Nc1ccccc1C(C)(C)C)C(=O)N[C@@H](CC(=O)O)C(=O)COC(=O)c1c(Cl)cccc1Cl` .
Result :: 30200 to 39100 M⁻¹ s⁻¹

Query :: Now try `C[C@H](NC(=O)C(=O)NC12CC3CC(CC(C3)C1)C2)C(=O)N[C@@H](CC(=O)O)C(=O)COP(=O)(c1ccccc1)c1ccccc1` .
Result :: 50400 to 643000 M⁻¹ s⁻¹
